MEASUREMENT PROTOCOL: Stability in rat liver microsomes assessed as compound remaining at […] preincubated for 5 mins followed by NADPH addition and measured after 30 mins by LC-MS/MS analysis
Type: ADME, Microsome
CONDITION LABEL: time 35 min, read-out: Stability
TEST READOUT: remaining at 0.5 h (%)
Give bare numbers, in %.

For `COc1nc(-c2ccc(NC(=O)Nc3ccc(C(=O)NCCCCCC(=O)Nc4ccccc4N)cc3)cc2)nc(N2CCOCC2)n1` , what is its reported remaining at 0.5 h? 46.9

----------
TARGET OR TEST SYSTEM: Polyamine deacetylase HDAC10 (Homo sapiens)
Sequence (Q969S8 whole entry): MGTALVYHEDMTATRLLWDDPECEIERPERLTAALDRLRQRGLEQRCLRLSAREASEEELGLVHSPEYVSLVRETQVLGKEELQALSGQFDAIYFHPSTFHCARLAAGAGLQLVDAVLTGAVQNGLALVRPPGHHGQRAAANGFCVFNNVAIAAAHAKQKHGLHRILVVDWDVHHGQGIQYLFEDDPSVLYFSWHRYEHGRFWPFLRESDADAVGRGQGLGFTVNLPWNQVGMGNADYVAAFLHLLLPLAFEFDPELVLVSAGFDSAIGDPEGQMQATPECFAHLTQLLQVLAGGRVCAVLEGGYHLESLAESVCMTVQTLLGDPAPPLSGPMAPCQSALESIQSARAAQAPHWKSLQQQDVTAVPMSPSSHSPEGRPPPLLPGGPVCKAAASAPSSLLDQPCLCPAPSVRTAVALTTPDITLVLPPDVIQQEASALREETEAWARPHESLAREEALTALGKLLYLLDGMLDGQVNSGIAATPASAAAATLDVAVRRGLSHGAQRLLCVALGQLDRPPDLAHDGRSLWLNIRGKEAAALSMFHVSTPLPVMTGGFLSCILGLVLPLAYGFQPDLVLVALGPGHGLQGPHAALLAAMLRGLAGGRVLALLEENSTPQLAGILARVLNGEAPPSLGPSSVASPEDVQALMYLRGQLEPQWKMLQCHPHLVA
TEST READOUT: IC50

// lookup IC50 for `COc1nc(-c2ccc(NC(=O)Nc3ccc(C(=O)NCCCCCC(=O)Nc4ccccc4N)cc3)cc2)nc(N2CCOCC2)n1` > 10 µM

----------
TARGET OR TEST SYSTEM: hERG (Homo sapiens)
Sequence (Q12809 whole entry): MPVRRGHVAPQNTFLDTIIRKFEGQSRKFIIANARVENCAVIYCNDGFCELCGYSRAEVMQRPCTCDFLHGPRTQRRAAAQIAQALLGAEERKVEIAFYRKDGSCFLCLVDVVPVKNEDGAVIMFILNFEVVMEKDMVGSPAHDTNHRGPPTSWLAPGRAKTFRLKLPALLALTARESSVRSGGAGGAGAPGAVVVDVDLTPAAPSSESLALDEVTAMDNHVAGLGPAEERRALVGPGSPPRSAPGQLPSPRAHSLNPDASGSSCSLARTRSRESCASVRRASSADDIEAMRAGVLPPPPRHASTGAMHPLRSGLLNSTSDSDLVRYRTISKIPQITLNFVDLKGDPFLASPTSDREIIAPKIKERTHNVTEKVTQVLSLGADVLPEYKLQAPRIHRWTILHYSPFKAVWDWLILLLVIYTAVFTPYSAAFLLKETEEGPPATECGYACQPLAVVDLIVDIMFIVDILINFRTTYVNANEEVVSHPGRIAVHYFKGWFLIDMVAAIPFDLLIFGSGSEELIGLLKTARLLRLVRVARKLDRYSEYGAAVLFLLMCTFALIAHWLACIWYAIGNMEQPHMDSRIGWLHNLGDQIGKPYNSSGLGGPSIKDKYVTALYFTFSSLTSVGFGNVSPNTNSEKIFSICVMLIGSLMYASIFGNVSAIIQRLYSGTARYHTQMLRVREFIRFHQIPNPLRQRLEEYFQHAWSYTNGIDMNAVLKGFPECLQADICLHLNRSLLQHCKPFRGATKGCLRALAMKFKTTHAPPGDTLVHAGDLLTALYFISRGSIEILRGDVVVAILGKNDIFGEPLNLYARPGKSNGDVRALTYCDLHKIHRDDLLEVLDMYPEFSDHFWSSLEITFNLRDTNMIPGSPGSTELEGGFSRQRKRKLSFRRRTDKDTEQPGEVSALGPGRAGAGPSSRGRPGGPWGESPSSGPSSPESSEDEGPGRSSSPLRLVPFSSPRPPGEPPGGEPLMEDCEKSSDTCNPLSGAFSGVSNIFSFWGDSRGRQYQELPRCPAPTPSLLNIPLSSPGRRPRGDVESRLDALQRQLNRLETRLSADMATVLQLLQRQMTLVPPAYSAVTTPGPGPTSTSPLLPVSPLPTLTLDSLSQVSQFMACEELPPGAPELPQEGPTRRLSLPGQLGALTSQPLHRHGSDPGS
MEASUREMENT PROTOCOL: Inhibition of hERG transfected in CHO cells at 30 uM by manual patch-clamp assay relative to control
Type: toxicity, cell-based
CONDITION LABEL: CHO cells transfected with hERG
TEST READOUT: inhibition at 30 µM (%)
Numbers only, in %.

What measured inhibition at 30 µM goes with `COc1nc(-c2ccc(NC(=O)Nc3ccc(C(=O)NCCCCCC(=O)Nc4ccccc4N)cc3)cc2)nc(N2CCOCC2)n1` ? 15.2

----------
TARGET OR TEST SYSTEM: CYP1A2 (Homo sapiens)
Sequence (P05177 whole entry): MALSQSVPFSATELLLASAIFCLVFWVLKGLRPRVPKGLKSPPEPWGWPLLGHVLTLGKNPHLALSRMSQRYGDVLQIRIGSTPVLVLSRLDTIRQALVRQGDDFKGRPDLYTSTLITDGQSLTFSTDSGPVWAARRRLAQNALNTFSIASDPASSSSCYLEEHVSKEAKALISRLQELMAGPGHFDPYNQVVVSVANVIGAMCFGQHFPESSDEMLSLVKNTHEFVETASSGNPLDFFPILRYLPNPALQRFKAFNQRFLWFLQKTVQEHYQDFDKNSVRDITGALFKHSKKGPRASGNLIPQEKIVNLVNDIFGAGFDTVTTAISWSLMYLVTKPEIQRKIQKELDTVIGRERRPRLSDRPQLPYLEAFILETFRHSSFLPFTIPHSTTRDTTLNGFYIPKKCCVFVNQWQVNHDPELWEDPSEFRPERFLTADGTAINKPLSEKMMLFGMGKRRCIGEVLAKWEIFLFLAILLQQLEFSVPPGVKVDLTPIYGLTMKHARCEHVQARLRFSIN
MEASUREMENT PROTOCOL: Inhibition of CYP1A2 in human liver microsomes using phenacetin as substrate at 10 uM in presence of NADPH regenerating system by LC-MS/MS analysis relative to control
Assay type: ADME, Microsome
CONDITION LABEL: probe phenacetin
TEST READOUT: inhibition at 10 µM (%)
One number for each entry, in %.

// lookup inhibition at 10 µM for `COc1nc(-c2ccc(NC(=O)Nc3ccc(C(=O)NCCCCCC(=O)Nc4ccccc4N)cc3)cc2)nc(N2CCOCC2)n1` 2.52
